Reference for the values: patent US20230293535A1

- tested.system: human EGFR exon 20 V769_D770insASV (Homo sapiens, UniProt P00533, INS769ASV)
- Sequence (P00533 with tags, fused parts or gaps INS769ASV): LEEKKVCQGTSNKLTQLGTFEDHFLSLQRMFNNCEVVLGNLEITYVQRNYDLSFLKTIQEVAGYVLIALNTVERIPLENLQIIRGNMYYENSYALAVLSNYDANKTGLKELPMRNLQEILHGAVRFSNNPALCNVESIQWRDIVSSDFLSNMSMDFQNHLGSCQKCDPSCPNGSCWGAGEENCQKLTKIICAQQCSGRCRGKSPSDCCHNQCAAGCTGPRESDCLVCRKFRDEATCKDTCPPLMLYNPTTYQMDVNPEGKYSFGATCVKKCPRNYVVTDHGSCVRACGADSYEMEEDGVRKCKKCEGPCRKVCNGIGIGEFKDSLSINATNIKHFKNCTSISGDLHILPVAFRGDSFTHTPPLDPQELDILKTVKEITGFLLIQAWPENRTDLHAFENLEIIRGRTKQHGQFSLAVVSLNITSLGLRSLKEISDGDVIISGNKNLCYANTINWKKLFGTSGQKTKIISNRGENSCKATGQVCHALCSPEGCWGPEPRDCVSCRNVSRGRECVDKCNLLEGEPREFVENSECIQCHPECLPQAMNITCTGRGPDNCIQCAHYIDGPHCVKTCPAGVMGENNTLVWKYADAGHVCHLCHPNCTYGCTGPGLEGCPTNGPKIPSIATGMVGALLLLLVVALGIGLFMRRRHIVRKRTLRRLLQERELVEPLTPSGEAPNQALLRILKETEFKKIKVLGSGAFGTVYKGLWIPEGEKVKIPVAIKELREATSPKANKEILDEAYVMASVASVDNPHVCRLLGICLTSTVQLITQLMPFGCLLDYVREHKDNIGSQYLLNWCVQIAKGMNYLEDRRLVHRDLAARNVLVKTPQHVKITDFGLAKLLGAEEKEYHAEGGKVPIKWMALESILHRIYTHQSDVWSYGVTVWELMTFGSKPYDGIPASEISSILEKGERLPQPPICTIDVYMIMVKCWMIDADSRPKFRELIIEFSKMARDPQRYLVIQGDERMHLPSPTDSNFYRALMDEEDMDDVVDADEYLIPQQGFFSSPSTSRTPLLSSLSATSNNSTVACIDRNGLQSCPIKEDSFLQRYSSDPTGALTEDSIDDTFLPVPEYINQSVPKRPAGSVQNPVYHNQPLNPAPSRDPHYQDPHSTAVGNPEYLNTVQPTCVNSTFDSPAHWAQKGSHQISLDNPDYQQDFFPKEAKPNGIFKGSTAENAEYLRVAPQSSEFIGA
- protocol.summary: EGFR Exon20 ASV insertion cellular phosphorylation inhibition (MSD pEGFR Y1068/total EGFR);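 note: electrochemiluminescent readout on an MSD SECTOR Imager, IL3-independent transduced cells in medium with 1% FBS, compound concentration series at 37 °C and 5% CO2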
- measurement.setup: Ba/F3 EGFR ASV ins cells, 4 h compound, p-EGFR(Y1068)/total EGFR
Each record is given Met if its reported IC50 is strictly below 10 nM. Records at or above 10 nM are given Not met.

C=CC(=O)Nc1cc(Nc2nccc(Nc3cc(Cl)c(F)cc3C(C)(C)O)n2)c(OC)cc1N1C[C@@H]2CN(C)C[C@@H]21	Met

Determine if C=CC(=O)Nc1cc(Nc2ncnc(Nc3cc(F)c(F)cc3C(C)(O)CC)n2)c(OC)cc1N1CC[C@H]2CN(C)C[C@H]21 (stereo partly drawn) shows IC50 strictly lower than 10 nM.
Not met

Determine if C=CC(=O)Nc1cc(Nc2ncnc(Nc3cc(Cl)c(F)cc3C(C)(O)CC)n2)c(OC)cc1N1CC[C@@H]1CN(C)C (stereo partly drawn) shows IC50 strictly lower than 10 nM.
Not met

Determine if `C=CC(=O)Nc1cc(Nc2ncnc(Nc3cc(Cl)c(F)cc3C(C)(C)O)n2)c(OC)cc1N(C)CCN1CCCC1` shows IC50 strictly lower than 10 nM.
Not met

Determine if `C=CC(=O)Nc1cc(Nc2ncnc(Nc3cc(F)c(Cl)cc3C(C)(C)O)n2)c(OC)cc1N1CCC[C@@H]1CN(C)C` shows IC50 strictly lower than 10 nM.
Met

----------
- Test system: Ri-1 cells
- protocol.summary: BTK (wt) cell proliferation, Ri-1 (CellTiter-Glo, 72 h);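 note: viable cells quantified as cellular ATP luminescence, proliferation normalized to a time-zero plate and the DMSO control, compounds tested across a dilution series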
- Format: cell-based
- measurement.setup: Ri-1, 72 h, Ri-1 cells, 72 h, CellTiter-Glo; read-out: BTK WT Ri-1 GI50
Reported GI50 values follow for various compounds
Numeric answer only, unit nM assumed.

Here are 3 compounds together with their reported answers.
C=CC(=O)Nc1cc(Nc2ncc(Cl)c(Nc3cc(Cl)c(F)cc3C(C)(C)O)n2)c(OC)cc1N(C)CCN(C)C	77.8
C=CC(=O)Nc1cc(Nc2nccc(Nc3cc(Cl)c(F)cc3C(C)(C)O)n2)c(OC)cc1N1C[C@@H](C)C[C@@H]1CN(C)C	79.4
C=CC(=O)N1CCC(Oc2cc3c(Nc4ccc(Cl)c(Cl)c4F)ncnc3cc2OC)CC1 [Poziotinib, reference compound]	1230

Returns the measured GI50 for the input compound. Input: C=CC(=O)Nc1cc(Nc2ncnc(Nc3cc(F)c(F)cc3C(C)(O)CC)n2)c(OC)cc1N1CC[C@@H]1CN(C)C (stereo partly drawn)
12

Returns the measured GI50 for the input compound. Input: `C=CC(=O)Nc1cc(Nc2ncnc(Nc3cc(Cl)c(Cl)cc3C(C)(C)O)n2)c(OC)cc1N(C)CCN(C)C`
6.68

Returns the measured GI50 for the input compound. Input: `C=CC(=O)Nc1cc(Nc2ncnc(Nc3cc(Cl)c(F)cc3C(C)(C)O)n2)c(OC)cc1N1CC(CN(C)C)C1`
1.47

----------
- tested.system: human Her2 exon 20 insertion mutation YVMA (Homo sapiens, UniProt P04626, INS775YVMA)
- Sequence (P04626 with tags, fused parts or gaps INS775YVMA): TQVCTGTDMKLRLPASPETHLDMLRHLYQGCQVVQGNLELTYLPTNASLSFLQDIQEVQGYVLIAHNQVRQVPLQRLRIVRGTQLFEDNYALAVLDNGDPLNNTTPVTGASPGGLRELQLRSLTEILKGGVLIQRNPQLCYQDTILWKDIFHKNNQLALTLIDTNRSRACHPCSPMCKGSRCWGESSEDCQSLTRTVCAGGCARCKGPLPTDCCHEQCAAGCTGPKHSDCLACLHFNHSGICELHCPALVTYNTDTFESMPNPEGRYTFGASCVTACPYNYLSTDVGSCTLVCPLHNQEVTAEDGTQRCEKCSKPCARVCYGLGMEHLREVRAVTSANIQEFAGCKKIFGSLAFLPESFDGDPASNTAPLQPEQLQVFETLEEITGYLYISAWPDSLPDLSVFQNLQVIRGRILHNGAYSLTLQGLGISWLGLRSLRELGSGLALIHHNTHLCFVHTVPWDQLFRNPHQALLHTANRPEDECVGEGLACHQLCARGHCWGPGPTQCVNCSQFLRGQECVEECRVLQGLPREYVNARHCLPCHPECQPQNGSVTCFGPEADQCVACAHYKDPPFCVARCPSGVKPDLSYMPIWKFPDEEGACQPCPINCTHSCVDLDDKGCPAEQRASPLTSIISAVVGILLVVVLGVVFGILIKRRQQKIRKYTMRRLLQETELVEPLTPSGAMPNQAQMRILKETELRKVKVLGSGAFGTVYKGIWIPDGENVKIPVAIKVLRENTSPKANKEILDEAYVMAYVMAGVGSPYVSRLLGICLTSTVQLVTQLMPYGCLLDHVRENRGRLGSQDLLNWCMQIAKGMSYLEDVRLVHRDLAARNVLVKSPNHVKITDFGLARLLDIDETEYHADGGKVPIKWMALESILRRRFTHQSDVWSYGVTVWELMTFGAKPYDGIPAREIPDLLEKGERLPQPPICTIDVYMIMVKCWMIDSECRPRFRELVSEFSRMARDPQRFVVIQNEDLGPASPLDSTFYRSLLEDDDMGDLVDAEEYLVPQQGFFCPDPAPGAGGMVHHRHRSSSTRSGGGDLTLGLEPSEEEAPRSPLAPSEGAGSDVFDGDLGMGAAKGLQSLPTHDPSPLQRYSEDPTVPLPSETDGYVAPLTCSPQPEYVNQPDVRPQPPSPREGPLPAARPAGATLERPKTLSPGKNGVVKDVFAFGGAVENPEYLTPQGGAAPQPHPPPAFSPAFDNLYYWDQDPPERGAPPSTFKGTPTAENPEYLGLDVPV
- protocol.summary: Her2 Exon 20 YVMA insertion cellular phosphorylation inhibition (MSD p-Her2 Y1248/total Her2);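 note: lentivirally transduced NIH-3T3 cells in 1% FBS medium, electrochemiluminescent MSD read-out, graded compound concentrations at 37 °C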
- measurement.setup: Her2 YVMAins cells, 4 h compound
Each record is given Fulfilled if its reported IC50 is strictly below 9 nM. Records at or above 9 nM are given Not fulfilled.

Example results:
C=CC(=O)Nc1cc(Nc2nccc(Nc3cc(Cl)c(F)cc3C(C)(C)O)n2)c(OC)cc1N1CC[C@@H](CN(C)C)C1 [Compound 86]	Not fulfilled
C=CC(=O)Nc1cc(Nc2ncnc(Nc3cc(F)c(F)cc3C(C)(O)CC)n2)c(OC)cc1N1CC[C@@H]1CN(C)C (stereo partly drawn) [Compound 55]	Fulfilled

Determine if C=CC(=O)Nc1cc(Nc2ncnc(Nc3cc(F)c(F)cc3C(C)(C)O)n2)c(OC)cc1N(C)CCN1CCCC1 [Compound 18] shows IC50 strictly lower than 9 nM.
Not fulfilled

Determine if C=CC(=O)Nc1cc(Nc2nccc(Nc3cc(Cl)c(Cl)cc3C(C)(C)O)n2)c(OC)cc1N1CC[C@@H](N(C)C)C1 [Compound 68] shows IC50 strictly lower than 9 nM.
Not fulfilled
